For each record, write down the corresponding log10 of kinact/KI.
- assayed-target: Human Polymorphonuclear Leukocyte Elastase (Homo sapiens)
- Construct: Crude extract of human polymorphonuclear leukocytes (PMN) containing elastase activity; from tissue; host or cells: human polymorphonuclear leukocytes (crude extract)
- Sequence (P08246 30-267): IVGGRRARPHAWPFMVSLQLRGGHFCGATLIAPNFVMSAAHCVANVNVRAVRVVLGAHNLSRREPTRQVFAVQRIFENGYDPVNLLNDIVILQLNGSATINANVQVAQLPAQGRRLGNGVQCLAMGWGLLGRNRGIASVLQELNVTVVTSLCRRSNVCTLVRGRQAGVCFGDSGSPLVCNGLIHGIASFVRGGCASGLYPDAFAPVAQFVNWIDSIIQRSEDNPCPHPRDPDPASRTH
- run-description: Enzyme assay for inhibition of human polymorphonuclear leukocyte elastase via hydrolysis of Boc-AAPAN or Boc-AAPVN
- Type: biochemical
- experimental-context: pH 7.5, second order rate constant for inactivation of the enzyme, expressed to the nearest thousand, read-out: Kobs/[I]
The base-10 logarithm of kinact/KI, taken with kinact/KI in M⁻¹ s⁻¹, is what appears here.

Entry under test: CCC[C@@H](NC(=O)N1C(=O)C(CC)(CC)[C@@H]1Oc1ccc(C(=O)N(C)CCN(C)C)cc1)c1ccc2c(c1)OCO2 . Its log10 of kinact/KI was 6.52

Given item CCC[C@@H](NC(=O)N1C(=O)C(CC)(CC)[C@@H]1Oc1ccc(C(=O)N(C)CCN(C)C2CCC(CC)CC2)cc1)c1ccc(C)cc1 (stereo partly drawn) , the value recorded as its log10 of kinact/KI is 6.39

Field log10 of kinact/KI (entry CCC[C@@H](NC(=O)N1C(=O)C(CC)(CC)[C@@H]1Oc1ccc(C(=O)N(C)CCN2CCC(O)CC2)cc1)c1ccc(C)cc1 ) reads 6.30

Lookup result for CCC[C@@H](NC(=O)N1C(=O)C(CC)(CC)[C@@H]1Oc1ccc(C(=O)NCCN2CC3CCC(CC3)C2)cc1)c1ccc(C)cc1 ; measured log10 of kinact/KI: 6.48

Per the records, this compound ( CCC[C@@H](NC(=O)N1C(=O)C(CC)(CC)[C@@H]1Oc1ccc(CC(=O)N2CCOCC2)cc1)c1cccc(C(=O)N2CCOCC2)c1 ) has log10 of kinact/KI equal to 5.23

GET /value?item= CCC[C@@H](NC(=O)N1C(=O)C(CC)(CC)[C@@H]1Oc1ccc(C(=O)N(C)CCN(CC)CC)cc1)c1ccc(Cl)cc1 &field=log10 of kinact/KI returns 6.11

* * *

- assayed-target: Human Polymorphonuclear Leukocyte Elastase (Homo sapiens)
- Construct: Crude extract of human polymorphonuclear leukocytes (PMN) containing elastase activity; from tissue; host or cells: human polymorphonuclear leukocytes (crude extract)
- run-description: Enzyme assay for inhibition of human polymorphonuclear leukocyte elastase via hydrolysis of Boc-AAPAN or Boc-AAPVN
- Format: biochemical
- experimental-context: pH 7.5, second order rate constant for inactivation of the enzyme, expressed to the nearest thousand, read-out: Kobs/[I]
- Method: Enzyme Assays for the Inhibition of Human Polymorphonuclear Leukocyte Elastase Via Hydrolysis of N-t-Boc-alanyl-alanyl-prolylalanine-p-nitroanilide (Boc-AAPAN) or N-t-Boc-alanyl-prolylvaline-p-nitro-anilide (Boc-AAPVN) Reagent: […] To 1.0 ml of 0.2 mM Boc-AAPAN in a cuvette, 0.01-0.1 ml of DMSO with or without inhibitor was added. […] 0.05 Milliliters of PMN extract was then added and the ΔOD/min at 410 mµ was measured and recorded. […]
property: kinact/KI (M⁻¹ s⁻¹)
A number alone suffices; assume M⁻¹ s⁻¹.

Memo: CCC[C@@H](NC(=O)N1C(=O)C(CC)(CC)[C@@H]1Oc1ccc(C(=O)N2CCN(c3cccc(Cl)c3)CC2)cc1)c1ccc(C)cc1 , reported kinact/KI: 2.45e+06

Sample CCC[C@@H](NC(=O)N1C(=O)C(CC)(CC)[C@@H]1Oc1ccc(C(=O)N(C)CCNC2C3CC4CC(C3)CC2C4)cc1)c1ccc(C)cc1 (stereo partly shown) ; kinact/KI observed: 3.01e+06

Form field kinact/KI, entry CCC[C@@H](NC(=O)N1C(=O)C(CC)(CC)[C@@H]1Oc1ccc(C(N)=O)cc1)c1ccc(C)cc1 : 1.64e+06

response.value for CCC[C@@H](NC(=O)N1C(=O)C(CC)(CC)[C@@H]1Oc1ccc(C(=O)NCCN2CCCC2)cc1)c1ccc(C)cc1 (field: kinact/KI) = 1.24e+06

For this molecule ( CCC[C@@H](NC(=O)N1C(=O)C(CC)(CC)[C@@H]1Oc1ccc(C(=O)N(C)CCN(C)CCc2ccccc2)cc1)c1ccc(C)cc1 ), measured kinact/KI is 2.8e+06

Looking up CCC[C@@H](NC(=O)N1C(=O)C(CC)(CC)[C@@H]1Oc1ccc(C(=O)OCC(c2ccccc2)N(C)C)cc1)c1ccc(C)cc1 (stereo partly shown) , I found its kinact/KI recorded as 656000

For reference, reported kinact/KI for CCC[C@@H](NC(=O)N1C(=O)C(CC)(CC)[C@@H]1Oc1ccc(C(=O)N(C)CCN(C)Cc2cccc(C#N)c2)cc1)c1ccc(C)cc1 stands at 2.45e+06

// kinact/KI lookup, molecule = CCC[C@@H](NC(=O)N1C(=O)C(CC)(CC)[C@@H]1Oc1ccc(CC(=O)OCCN(CC)CC)cc1)c1ccc(C)cc1 , result: 1.34e+06

// kinact/KI value for CCC[C@@H](NC(=O)N1C(=O)C(CC)(CC)[C@@H]1Oc1ccc(C(=O)N(C)CCN(C)C2CCC3CC2C3(C)C)cc1)c1ccc(C)cc1 (stereo partly shown) : 2.29e+06

// field: kinact/KI; key: CCC[C@@H](NC(=O)N1C(=O)C(CC)(CC)[C@@H]1Oc1ccc(C(=O)N(CCN2CCCCC2)Cc2cccnc2)cc1)c1ccc(C)cc1 ; value = 1.19e+06

Data point: CCC[C@@H](NC(=O)N1C(=O)C(CC)(CC)[C@@H]1Oc1ccc(C(=O)N(C)CCN2CCCC2)cc1)c1ccc(C)cc1 ; kinact/KI = 1e+06

Record CCC[C@@H](NC(=O)N1C(=O)C(CC)(CC)[C@@H]1Oc1ccc(CC(=O)N(C)CCN(C)C)cc1)c1ccc(O)cc1 , field kinact/KI: 309000

GET /value?item= CCC[C@@H](NC(=O)N1C(=O)C(CC)(CC)[C@@H]1Oc1ccc(C(=O)N2CCC[C@H]2CN2CCCC2)cc1)c1ccc(C)cc1 &field=kinact/KI returns 2.69e+06

Lab note: measured kinact/KI of CCC[C@@H](NC(=O)N1C(=O)C(CC)(CC)[C@@H]1Oc1ccc(C(=O)N(CCN(C)C)c2ccccc2)cc1)c1ccc(C)cc1 was 2.5e+06

// recorded kinact/KI for CCC[C@@H](NC(=O)N1C(=O)C(CC)(CC)[C@@H]1Oc1ccc(CC(=O)N(C)CCN(C(C)C)C(C)C)cc1)c1ccc(C)cc1 : 1.63e+06

# kinact/KI of CCC[C@@H](NC(=O)N1C(=O)C(CC)(CC)[C@@H]1Oc1ccc(C(=O)N(C)CCN(C)Cc2cccc(OC)c2)cc1)c1ccc(C)cc1 = 1.91e+06

Per the record, CCC[C@@H](NC(=O)N1C(=O)C(CC)(CC)[C@@H]1Oc1ccc(C(=O)N(C)CCN(C)Cc2ccccc2Cl)cc1)c1ccc(C)cc1 has kinact/KI of 1.59e+06

Reported kinact/KI for CCC[C@@H](NC(=O)N1C(=O)C(CC)(CC)[C@@H]1Oc1ccc(C(=O)N2CCN(CC(C)C)CC2)cc1)c1ccc(C)cc1 was 2.48e+06

Short answer for CCC[C@@H](NC(=O)N1C(=O)C(CC)(CC)[C@@H]1Oc1ccc(C(=O)Nc2ccc(F)cc2)cc1)c1ccc(C)cc1 : kinact/KI was 724000

Recorded result, CCC[C@@H](NC(=O)N1C(=O)C(CC)(CC)[C@@H]1Oc1ccc(C(=O)NCCN2CCN(C(=O)OCc3ccccc3)CC2)cc1)c1ccc(C)cc1 , kinact/KI: 6.23e+06

For this molecule ( CCC[C@@H](NC(=O)N1C(=O)C(CC)(CC)[C@@H]1Oc1ccc(C(=O)N2CC(C)NC(C)C2)cc1)c1ccc(C)cc1 (stereo partly shown) ), measured kinact/KI is 1.52e+06

Query CCC[C@@H](NC(=O)N1C(=O)C(CC)(CC)[C@@H]1Oc1ccc(CC(=O)N(C)CCN2CCOCC2)cc1)c1ccc(C)cc1 yields kinact/KI of 2.51e+06

Memo: CCC[C@@H](NC(=O)N1C(=O)C(CC)(CC)[C@@H]1Oc1ccc(C(=O)NOCc2ccccc2)cc1)c1ccc(C)cc1 , reported kinact/KI: 1.8e+06

For reference, reported kinact/KI for C=CCN(CC=C)CCOC(=O)c1ccc(O[C@@H]2N(C(=O)N[C@H](CCC)c3ccc(C)cc3)C(=O)C2(CC)CC)cc1 stands at 891000

What the record says about CCC[C@@H](NC(=O)N1C(=O)C(CC)(CC)[C@@H]1Oc1cc(C)c(C(=O)N(CC)CCN(C)C)c(C)c1)c1ccc(C)cc1 : kinact/KI is 398000
